Ref: paper PMC4336329

assayedTarget: human ether-à-go-go-related gene (hERG) potassium channel (human, UniProt Q12809);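 note: peak tail current of the secondary pulse compared with the same well before compound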
Sequence (Q12809 whole entry, looked up): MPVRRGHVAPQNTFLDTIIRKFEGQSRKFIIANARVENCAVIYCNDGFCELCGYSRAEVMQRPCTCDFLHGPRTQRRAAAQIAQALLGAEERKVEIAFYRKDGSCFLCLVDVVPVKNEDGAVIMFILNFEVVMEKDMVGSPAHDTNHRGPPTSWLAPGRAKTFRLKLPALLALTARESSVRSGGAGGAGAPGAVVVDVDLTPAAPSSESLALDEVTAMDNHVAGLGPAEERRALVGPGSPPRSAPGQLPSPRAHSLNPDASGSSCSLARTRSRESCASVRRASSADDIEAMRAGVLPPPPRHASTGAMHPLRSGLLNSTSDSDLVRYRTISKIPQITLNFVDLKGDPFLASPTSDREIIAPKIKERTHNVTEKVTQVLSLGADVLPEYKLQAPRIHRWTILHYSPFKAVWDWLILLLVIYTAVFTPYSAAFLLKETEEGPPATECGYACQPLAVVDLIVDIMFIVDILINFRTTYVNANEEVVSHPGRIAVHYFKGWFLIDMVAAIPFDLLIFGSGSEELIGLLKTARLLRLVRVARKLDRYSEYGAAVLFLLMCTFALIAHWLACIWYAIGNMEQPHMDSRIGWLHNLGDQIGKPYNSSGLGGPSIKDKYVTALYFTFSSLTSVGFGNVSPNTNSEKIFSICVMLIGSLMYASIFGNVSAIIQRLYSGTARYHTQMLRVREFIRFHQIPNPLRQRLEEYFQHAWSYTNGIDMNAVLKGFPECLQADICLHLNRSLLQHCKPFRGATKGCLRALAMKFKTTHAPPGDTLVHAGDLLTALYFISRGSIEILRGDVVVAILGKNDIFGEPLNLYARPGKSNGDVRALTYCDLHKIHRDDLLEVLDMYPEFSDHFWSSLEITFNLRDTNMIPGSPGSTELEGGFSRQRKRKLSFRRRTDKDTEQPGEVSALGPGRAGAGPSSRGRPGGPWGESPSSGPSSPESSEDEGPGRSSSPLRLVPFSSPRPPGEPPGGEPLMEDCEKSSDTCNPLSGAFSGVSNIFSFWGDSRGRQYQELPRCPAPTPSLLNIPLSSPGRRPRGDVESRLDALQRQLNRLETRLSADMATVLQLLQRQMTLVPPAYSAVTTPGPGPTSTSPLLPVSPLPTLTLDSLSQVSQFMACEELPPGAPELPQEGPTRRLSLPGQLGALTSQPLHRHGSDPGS
runDescription: primary screen, population patch clamp on CHO cells stably expressing hERG; higher = less effect of the substance
Screen size: about 310,000 compounds; about 14,000 (4.5%) showed an effect of 50% or more. The effect is printed as a negative number. Many of the other results were omitted from the sample, so strong results are more common in it than they were.
Is hERG current change (%, negative = inhibition) at 10uM at least -10%? Then 1. If not, 0.

molecule: CCOC(=O)COc1ccc(C2CC(C)=NN2c2ccccc2)cc1 (stereo not shown)
classification: 1
--
molecule: COc1cc2c(cc1OC)CN(c1ccc([N+](=O)[O-])cc1Cl)CC2
classification: 0
--
molecule: Nc1c(C(=O)NCc2ccco2)c2nc3ccccc3nc2n1CCN1CCOCC1
classification: 1
--
molecule: Cc1noc(C)c1C(=O)NCCc1ccccc1
classification: 1
--
molecule: COc1ccc(C(=O)Nc2ccc(SC(F)F)cc2)cc1
classification: 1
--
molecule: Nc1c(C(=O)NCCN2CCOCC2)c2nc3ccccc3nc2n1Cc1ccco1
classification: 0
--
molecule: COc1ccc(Nc2cnn(-c3nc4ccccc4s3)c(=O)c2Cl)cc1
classification: 1
--
molecule: CS(=O)(=O)Oc1ccc2c(c1)O/C(=C\C=C\c1ccccc1)C2=O
classification: 1
--
molecule: O=C(c1ccccc1)N1CCN(c2ccc([N+](=O)[O-])cc2-n2cccc2)CC1
classification: 0
--
molecule: O=C(c1ccccc1F)N1CCN(c2ccc([N+](=O)[O-])cc2-n2cccc2)CC1
classification: 0
--
molecule: COc1ccc(C(=O)Nc2nc3ccccc3s2)cc1OC
classification: 0
--
molecule: Cc1nc2sc(C(=O)O)c(N)c2c2c1COC(C)(C)C2
classification: 1
--
molecule: CCOc1ccccc1NC(=O)c1cc(C(=O)c2cc(OC)ccc2O)coc1=N
classification: 0
--
molecule: CN(CCNC(=O)c1cn(C)c2ccc(S(=O)(=O)N(C)C)cc2c1=O)CCc1ccccc1
classification: 0
--
molecule: CC(C)(C)C(=O)N1CCN(c2ccc([N+](=O)[O-])cc2-n2cccc2)CC1
classification: 0
--
molecule: CCN(CC)CCCNC(=O)c1cn(C)c2ccc(S(=O)(=O)N(C)C)cc2c1=O
classification: 1
--
molecule: CN(Cc1ccccc1)C(=O)Nc1ccccc1
classification: 1
--
molecule: Cc1ccc(S(=O)(=O)c2cc3c(=O)n4cccc(C)c4nc3n(Cc3ccncc3)c2=N)cc1
classification: 0
--
molecule: CC(C)OCCCNC(=O)c1cn(C)c2ccc(S(=O)(=O)N(C)C3CCCCC3)cc2c1=O
classification: 0
--
molecule: COc1ccc(CC(=O)Nc2nc3ccc(F)cc3s2)cc1S(=O)(=O)N1CCOCC1
classification: 0
--
molecule: O=C(c1ccc(F)cc1)N1CCN(c2ccc([N+](=O)[O-])cc2-n2cccc2)CC1
classification: 0
--
molecule: N#CCSc1nnc(C2CCCCC2)n1Cc1ccccc1
classification: 0
